# credit: paper PMC12435242

- SUBJECT_OF_TEST: SV2A-F188A (Homo sapiens, UniProt Q7L0J3, F188A)
- Sequence (Q7L0J3 65-742 F188A limits assumed): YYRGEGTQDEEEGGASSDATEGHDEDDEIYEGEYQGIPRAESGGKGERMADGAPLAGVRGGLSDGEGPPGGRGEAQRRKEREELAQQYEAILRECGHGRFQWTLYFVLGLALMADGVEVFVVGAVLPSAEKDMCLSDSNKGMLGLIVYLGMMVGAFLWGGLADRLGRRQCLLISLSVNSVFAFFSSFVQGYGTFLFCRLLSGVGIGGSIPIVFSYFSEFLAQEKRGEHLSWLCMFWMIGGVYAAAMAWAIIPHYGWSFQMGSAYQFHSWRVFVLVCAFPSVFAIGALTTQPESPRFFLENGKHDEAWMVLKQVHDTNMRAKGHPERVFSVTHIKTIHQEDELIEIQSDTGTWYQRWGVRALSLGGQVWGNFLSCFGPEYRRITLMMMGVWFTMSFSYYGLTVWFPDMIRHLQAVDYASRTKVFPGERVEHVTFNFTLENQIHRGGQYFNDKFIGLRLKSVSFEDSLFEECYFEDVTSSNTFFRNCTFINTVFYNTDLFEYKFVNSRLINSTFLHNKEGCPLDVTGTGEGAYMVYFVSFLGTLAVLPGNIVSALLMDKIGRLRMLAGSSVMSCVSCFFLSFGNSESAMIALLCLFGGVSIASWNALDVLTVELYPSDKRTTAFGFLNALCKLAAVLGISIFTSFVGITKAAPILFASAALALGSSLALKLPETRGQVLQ
- ASSAY_DETAILS: 3H-LEV filter binding, concentration-response of UCB1244283
OBSERVABLE: EC50 (µM)
One number for each entry, in µM.

I would be grateful if you could share the reported EC50 for COc1ccccc1NC(=O)CC(C)Cc1cc(C)cc(C)c1 (stereo not shown) [UCB1244283] .
0.07

###

- SUBJECT_OF_TEST: UniProt:Q7L0J3
- ASSAY_DETAILS: 3H-UCB-J binding with or without UCB1244283
- CONDITIONS: Kd of 3H-UCB-J binding to SV2A, in the absence of UCB1244283
OBSERVABLE: pKd
One number for each entry, as −log10 of the molar value.

Fill in: pKd of Cc1cnccc1CN1C[C@@H](c2cc(F)c(F)c(F)c2)CC1=O is ___
8.28
